Where these numbers come from: patent US10227357B2

Target: c-kit kinase (Homo sapiens, UniProt P10721)
Construct: The c-kit (or kinase domain thereof) is an active kinase in AlphaScreen; poly-Histidine tag (in-house protein only) (cleaved yes); host or cells: E. coli BL21(DE3)RIL, co-expressed with PTP1B
Sequence (P10721 26-976): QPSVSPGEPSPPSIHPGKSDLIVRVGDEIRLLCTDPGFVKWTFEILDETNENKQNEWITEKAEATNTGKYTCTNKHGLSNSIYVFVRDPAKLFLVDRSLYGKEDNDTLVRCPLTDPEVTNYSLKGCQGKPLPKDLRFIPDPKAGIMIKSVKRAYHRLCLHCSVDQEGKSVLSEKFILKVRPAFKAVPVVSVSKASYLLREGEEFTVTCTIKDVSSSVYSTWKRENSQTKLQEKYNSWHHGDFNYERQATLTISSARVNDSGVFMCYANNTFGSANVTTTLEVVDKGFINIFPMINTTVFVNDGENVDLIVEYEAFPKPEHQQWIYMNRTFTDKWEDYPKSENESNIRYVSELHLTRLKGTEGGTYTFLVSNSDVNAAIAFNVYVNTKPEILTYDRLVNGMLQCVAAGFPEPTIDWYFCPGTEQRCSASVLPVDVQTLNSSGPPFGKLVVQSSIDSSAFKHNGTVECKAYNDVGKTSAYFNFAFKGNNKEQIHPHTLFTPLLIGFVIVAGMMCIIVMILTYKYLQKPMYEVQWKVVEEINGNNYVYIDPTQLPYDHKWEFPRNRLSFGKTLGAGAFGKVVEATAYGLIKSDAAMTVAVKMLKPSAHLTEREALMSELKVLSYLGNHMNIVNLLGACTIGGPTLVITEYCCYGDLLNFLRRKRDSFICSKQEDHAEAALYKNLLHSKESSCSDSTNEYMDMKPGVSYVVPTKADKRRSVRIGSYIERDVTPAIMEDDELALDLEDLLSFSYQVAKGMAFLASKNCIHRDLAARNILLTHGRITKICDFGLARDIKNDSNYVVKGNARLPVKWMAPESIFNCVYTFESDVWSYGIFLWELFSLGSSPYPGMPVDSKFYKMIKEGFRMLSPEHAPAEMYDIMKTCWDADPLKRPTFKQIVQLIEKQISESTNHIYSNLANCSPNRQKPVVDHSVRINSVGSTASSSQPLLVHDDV
Assay: c-Kit biochemical assay, AlphaScreen, 10 μM ATP
Settings: c-kit biochemical inhibitory activity; read-out: Biochemical activity (IC50 μM) Kit
# IC50 listing for each entry below

Report IC50, nothing else, for this compound: Cc1ncc(-c2cc3c(N4CCN(C(=O)NCc5ccc(F)cc5)CC4)ncnc3[nH]2)s1 [P-0079]
0.0001 to 1 µM

Report IC50, nothing else, for this compound: COc1cccc([C@@H](C)NC(=O)N2CCN(c3ncnc4[nH]c(-c5ccc(F)cc5)cc34)CC2)c1 [P-0149]
10 to 200 µM

Report IC50, nothing else, for this compound: Cn1cc(-c2cc3c(N4CCN(c5nc6ccccc6[nH]5)CC4)ncnc3[nH]2)cn1 [P-0010]
0.0001 to 1 µM

Report IC50, nothing else, for this compound: COc1ccc(NC(=O)N2CCN(c3ncnc4[nH]c(-c5ccncc5)cc34)C[C@H]2C)cn1 [P-0057]
1 to 10 µM

====

Molecular target: c-kit kinase (Homo sapiens, UniProt P10721)
Construct: The c-kit (or kinase domain thereof) is an active kinase in AlphaScreen; poly-Histidine tag (in-house protein only) (cleaved yes); host or cells: E. coli BL21(DE3)RIL, co-expressed with PTP1B
Assay: c-Kit biochemical assay, AlphaScreen, 10 μM ATP
Settings: c-kit biochemical inhibitory activity; read-out: Biochemical activity (IC50 μM) Kit
assayMetric: IC50

# compoundStructure, assayMetric, result
measured = [
    ("COc1cccc([C@H](C)NC(=O)N2CCN(c3ncnc4[nH]c(-c5cnn(C)c5)cc34)CC2)c1", "IC50", "0.0001 to 1 µM"),
]

Report IC50, nothing else, for this molecule: "COc1cc(-c2cc3c(N4CCN(C(=O)N[C@@H](C)c5ccc(Cl)cc5)C(C)(C)C4)ncnc3[nH]2)ccn1"
10 to 200 µM

Report IC50, nothing else, for this molecule: "Cc1nn(C)cc1-c1cc2c(N3CCN(C(=O)N[C@@H](C)c4ccc(Cl)cc4)CC3)ncnc2[nH]1"
10 to 200 µM

Report IC50, nothing else, for this molecule: "Cc1ccc(S(=O)(=O)Nc2ccc(-c3ncnc4[nH]nc(C)c34)cc2)cc1"
1 to 10 µM

Report IC50, nothing else, for this molecule: "COc1ccc(S(=O)(=O)Nc2ccc(-c3ncnc4[nH]c(C)cc34)cc2)cc1"
1 to 10 µM

Report IC50, nothing else, for this molecule: "O=C(NC1CCCC1)NC1CCN(c2ncnc3[nH]ccc23)CC1"
10 to 200 µM

Report IC50, nothing else, for this molecule: "COc1cccc([C@H](C)NC(=O)N2CCN(c3ncnc4[nH]c(C)cc34)C[C@H]2C)c1"
10 to 200 µM

Report IC50, nothing else, for this molecule: "CS(=O)(=O)Nc1ccc(-c2ncnc3[nH]c(-c4ccc(F)cc4)cc23)c(F)c1F"
1 to 10 µM

Report IC50, nothing else, for this molecule: "CS(=O)(=O)Nc1cc(F)c(-c2ncnc3[nH]c(-c4ccc(F)cc4)cc23)cc1F"
0.0001 to 1 µM

Report IC50, nothing else, for this molecule: "O=C(Nc1ccc(OC(F)(F)F)cc1)N1CCN(c2ncnc3[nH]c(-c4ccc(F)cc4)cc23)CC1"
0.0001 to 1 µM

Report IC50, nothing else, for this molecule: "O=S(=O)(Nc1ccc(F)cc1)c1ccc(-c2ncnc3[nH]c(-c4ccc(F)cc4)cc23)c(F)c1"
10 to 200 µM

Report IC50, nothing else, for this molecule: "C[C@H](NC(=O)N1CCN(c2ncnc3cc(-c4ccc(F)cc4)sc23)C[C@H]1C)c1cccc(F)c1"
1 to 10 µM

Report IC50, nothing else, for this molecule: "COCCOc1cc2ncnc(-c3ccc(NS(=O)(=O)c4ccc(OC(F)F)cc4)cc3F)c2cc1OCCOC"
1 to 10 µM

Report IC50, nothing else, for this molecule: "C[C@H](NC(=O)N1CCN(c2ncnc3cc(-c4ccc(F)cc4)sc23)CC1(C)C)c1cccc(Cl)c1"
10 to 200 µM

Report IC50, nothing else, for this molecule: "O=C(N1CC=C(c2cc3ncnc(-c4ccc(NS(=O)(=O)C5CC5)cc4)c3s2)CC1)N1CCOCC1"
0.0001 to 1 µM

Report IC50, nothing else, for this molecule: "O=C(Nc1ccccc1)NC1CCN(c2ncnc3[nH]ccc23)CC1"
10 to 200 µM

Report IC50, nothing else, for this molecule: "COc1cc2ncnc(-c3ccc(N)cc3F)c2cc1OC"
10 to 200 µM
